Assay target: Human 5-lipoxygenase (Homo sapiens, UniProt P09917)
Construct: purchased Cayman 60402; host or cells: insect cells
Sequence (P09917 1-674): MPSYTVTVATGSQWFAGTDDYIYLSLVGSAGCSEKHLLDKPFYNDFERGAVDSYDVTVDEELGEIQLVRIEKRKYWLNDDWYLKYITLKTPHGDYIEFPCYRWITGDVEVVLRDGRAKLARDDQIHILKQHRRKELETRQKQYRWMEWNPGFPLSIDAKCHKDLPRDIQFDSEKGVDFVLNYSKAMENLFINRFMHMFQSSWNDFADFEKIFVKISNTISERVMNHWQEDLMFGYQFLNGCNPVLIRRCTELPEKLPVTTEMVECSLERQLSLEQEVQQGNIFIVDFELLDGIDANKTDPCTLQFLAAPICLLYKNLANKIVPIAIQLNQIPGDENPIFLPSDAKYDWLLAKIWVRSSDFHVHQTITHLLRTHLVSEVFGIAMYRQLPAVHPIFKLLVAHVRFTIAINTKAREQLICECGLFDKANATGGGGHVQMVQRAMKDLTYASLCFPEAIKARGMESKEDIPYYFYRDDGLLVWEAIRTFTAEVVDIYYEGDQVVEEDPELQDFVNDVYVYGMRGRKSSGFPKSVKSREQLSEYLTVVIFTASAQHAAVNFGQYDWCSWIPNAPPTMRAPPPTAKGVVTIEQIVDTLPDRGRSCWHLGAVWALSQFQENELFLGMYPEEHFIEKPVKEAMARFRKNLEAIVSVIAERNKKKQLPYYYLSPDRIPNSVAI
Method description: Activity of compounds against 5-LO enzyme (LTB4 measurement and/or fluorescence method)
Type: biochemical
Recorded conditions: 5-LO, single concentration of 10 uM in duplicate
Reported values of inhibition at 10 µM for individual entries
Measurement type: inhibition at 10 µM

> print(dat)
                                   molecule     result
1  CCc1nc2cc(C)ccn2c1C(=O)NCc1ccc(Oc2ccc(OC(F)(F)F)cc2)cc1 [compound 219]      > 69%
2  Cc1nc2cccc(C)n2c1C(=O)NCc1ccccc1 [compound 34]  40 to 69%
3  CCc1nc2ccc(Br)cn2c1C(=O)NCc1ccc(OCc2ccc(OC(F)(F)F)cc2)cc1 [compound 206]      < 40%
4  CCc1nc2ccc(F)cn2c1C(=O)NCc1ccc(N2CCC(c3ccc(OC(F)(F)F)cc3)CC2)cc1 [compound 372]      < 40%

* * *

Measurement type: melting point (°C)

> print(dat)
                                    compound  measurement.type  relation.qualifier  quantitative.result
 1  CCc1nc2ccc(Cl)cn2c1C(=O)NCc1ccc2oc(C3CCCCC3)nc2c1     melting point                   =                169.7
 2  CCc1nc2ccc(F)cn2c1C(=O)NC1CCN(c2ccc(Nc3ccccc3)cc2)C1 (stereo not drawn)     melting point                   =                224.7
 3  CCc1nc2ccc(Cl)cn2c1COc1ccc(N2CCN(c3ccc(F)cc3)CC2)cc1     melting point                   =                161.3
 4  CCc1nc2ccc(Br)cn2c1C(=O)NCc1ccc(OCc2ccc(OC(F)(F)F)cc2)cc1     melting point                   =                189.7
 5  CCc1nc2cc(Cl)ccn2c1C(=O)NCc1nc2ccc(-c3ccc(OC(F)(F)F)cc3)cc2o1     melting point                   >                  220
 6  CCc1nc2cc(Cl)ccn2c1C(=O)NCc1ccc(N2CCC(COc3ccc(F)cc3)CC2)cc1     melting point                   =                186.5
 7  CCc1nc2ccc(Cl)cn2c1CNc1ccc(N2CCC(c3ccc(Cl)cc3)CC2)cc1     melting point                   =                159.5
 8  CCc1nc2ccccn2c1C(=O)NCc1ccc(N2CCC(c3ccc(OC(F)(F)F)cc3)CC2)cc1     melting point                   =                  146
 9  CCc1nc2cc(-c3cccnc3)ccn2c1C(=O)NCc1ccc(N2CCOCC2)cc1     melting point                   =                208.5
10  CCc1nc2cc(Cl)ccn2c1C(=O)NCc1nc2cc(-c3ccc(OC(F)(F)F)cc3)ccc2o1     melting point                   >                  220
11  Cc1nc2cccc(C)n2c1CNc1ccc(N2CCN(c3ccc(F)cc3)CC2)cc1     melting point                   =                196.4
12  CCc1nc2c(OC(F)F)cccn2c1C(=O)NCc1ccc(N2CCOCC2)cc1     melting point                   =                  163
13  CCc1nc2cc(N3CCN(c4ccccc4)CC3)ccn2c1C(=O)NCc1ccc(C(F)(F)F)cc1     melting point                   =                235.2
14  CCc1nc2cc(N3CCN(Cc4ccc(F)cc4)CC3)ccn2c1C(=O)NCc1ccc(N2CCOCC2)cc1     melting point                   =                212.5
15  CCc1nc2ccc(Cl)cn2c1C(=O)NCc1ccc(N2CCC3CCCCC3C2)cc1 (stereo not drawn)     melting point                   =                141.7
16  CCc1nc2cc(Cl)ccn2c1C(=O)NCc1ccc(N2CCC(C(N)=O)CC2)cc1     melting point                   =                  244
17  CCc1nc2ccc(Cl)cn2c1C(=O)NCc1nc2ccc(Cl)cc2n1C     melting point                   >                  220
18  CCc1nc2ccc(Cl)cn2c1C(=O)NCc1nc2ccc(Cl)cc2s1     melting point                   >                  220
19  CCc1nc2cc(C(F)(F)F)ccn2c1C(=O)NCc1ccc(N2CCOCC2)cc1     melting point                   =                174.1
20  CCc1nc2cccnn2c1CNc1ccc(N2CCN(c3ccc(F)cc3)CC2)cc1     melting point                   =                192.7
21  CCc1nc2cc(Cl)ccn2c1C(=O)NCc1ccc(N2CCOCC2)cc1     melting point                   =                  195
22  CCc1nc2c(F)cccn2c1C(=O)NCc1ccc(N2CCN(c3ccc(F)cc3)CC2)cc1     melting point                   =                204.1

* * *

Assay target: Human 5-lipoxygenase (Homo sapiens)
Construct: purchased Cayman 60402; host or cells: insect cells
Method description: Activity of compounds against 5-LO enzyme (LTB4 measurement and/or fluorescence method)
Format: biochemical
Recorded conditions: 5-LO, single concentration of 10 uM in duplicate
Measurement type: inhibition at 10 µM

> print(dat)
                                    molecule     result
 1  CCc1nc2c(F)cccn2c1C(=O)NCc1ccc(N2CCN(c3ccc(F)cc3)CC2)cc1 [compound 223]      > 69%
 2  CCc1nc2ccc(Cl)cn2c1C(=O)NCc1nc2ccc(Cl)cc2s1 [compound 371]      < 40%
 3  CCc1nc2cc(Cl)c(Cl)cn2c1C(=O)NCc1ccc(OC(F)(F)F)cc1 [compound 178]      < 40%
 4  CCc1nc2ccc(Cl)cn2c1C(=O)NCc1ccc(-c2cccc(C)c2)cc1 [compound 76]  40 to 69%
 5  CCc1nc2cc(Cl)c(Cl)cn2c1C(=O)NCc1ccc(N2CCN(Cc3ccc(F)cc3)CC2)cc1 [compound 179]  40 to 69%
 6  CCc1nc2cc(Cl)ccn2c1C(=O)NCc1ccc(N2CCC(CO)CC2)cc1 [compound 212]      < 40%
 7  CCc1nc2c(OC(F)F)cccn2c1C(=O)NCc1ccc(N2CCN(c3ccc(F)cc3)CC2)cc1 [compound 278]  40 to 69%
 8  CCc1nc2cc(Cl)ccn2c1C(=O)NCc1ccc(OCc2ccc(OC(F)(F)F)cc2)cc1 [compound 171]      < 40%
 9  CCc1nc2cc(Cl)ccn2c1-c1nnc(Cc2ccc(F)cc2)o1 [compound 348]      < 40%
10  CCc1nc2ccc(Cl)cn2c1C(=O)NCc1ccc(N2CCC(Oc3ccc(F)cc3)CC2)cc1 [compound 308]  40 to 69%
11  CCc1nc2cc(Cl)ccn2c1C(=O)NCc1ccc(C2CCOCC2)cc1 [compound 364]      < 40%
12  CCc1nc2cc(Cl)ccn2c1C(=O)NCc1ccc(N2CCCCC2C)cc1 (centres unmarked) [compound 252]      < 40%
13  CCc1nc2cc(Cl)ccn2c1C(=O)NCc1ccc(N2CC(COc3ccc(F)cc3)OC2=O)cc1 (centres unmarked) [compound 378]      < 40%
14  CCOC(=O)C1CCN(c2ccc(CNC(=O)c3c(CC)nc4cc(Cl)ccn34)cc2)CC1 [compound 270]  40 to 69%
15  CCc1nc2ccc(Cl)cn2c1C(=O)N(C)Cc1ccc(N2CCN(c3ccc(F)cc3)CC2)cc1 [compound 314]      > 69%
16  CCc1nc2ccc(C)cn2c1C(=O)NCc1ccc(OC(F)(F)F)cc1 [compound 59]  40 to 69%
17  CCc1nc2c[n+]([O-])ccn2c1C(=O)NCc1ccc(OC(F)(F)F)cc1 [compound 142]  40 to 69%
18  CCc1nc2c(Br)cccn2c1C(=O)NCc1ccc(N2CCN(c3ccc(F)cc3)CC2)cc1 [compound 260]      > 69%
19  CCc1nc2ccc(Cl)cn2c1C(=O)NCc1ccc(N2CCN(c3ccc(OC(F)(F)F)cc3)CC2)cc1 [compound 158]  40 to 69%
20  CCc1nc2cc(Cl)ccn2c1C(=O)NCc1ccc(-c2ccccc2C#N)cc1 [compound 106]  40 to 69%
21  Cc1nc2ccccn2c1C(=O)Nc1ccc(OCc2ccccc2)cc1 [compound 14]      < 40%
22  CCc1nc2ccc(Cl)cn2c1-c1nc(Cc2ccc(OC(F)(F)F)cc2)no1 [compound 165]      < 40%
23  CCc1nc2ccc(OC)cn2c1C(=O)NCc1ccc(N2CCOCC2)cc1 [compound 272]      < 40%
24      CCc1nc2ccc(Cl)cn2c1CO [compound 146]      < 40%
25  CCc1nc2cc(Cl)ccn2c1C(=O)NCc1ccc(N2CCC(C(=O)O)CC2)cc1 [compound 275]      < 40%
26  CCc1nc2c(C(F)(F)F)cccn2c1C(=O)NCc1ccc(N2CCOCC2)cc1 [compound 274]      < 40%
27  CCc1nc2ccc(Cl)cn2c1C(=O)NCc1ccc(CC2CCOCC2)cc1 [compound 358]      < 40%
28  CCc1nc2ccc(Cl)cn2c1C(=O)NCc1cccc(CC(=O)Nc2ccc(F)cc2)c1 [compound 355]      < 40%
29  CCc1nc2cc(Cl)ccn2c1C(=O)NCc1ccc(-n2cccc2)cc1 [compound 117]      < 40%
